Please provide measured LDH release cytotoxicity for the entries that follow.
# Test system: HepaRG
# Test Method Notes: LDH release cytotoxicity, % of total lysis control; higher = more cytotoxic
# Condition: 0.03162 µM; 48 h
Please respond with the number in % and leave the unit unwritten.

Reported LDH release cytotoxicity of NC(N)=O : -1.69

Reported LDH release cytotoxicity of CCCCC(CC)COC(=O)CCCCC(=O)OCC(CC)CCCC (stereo not given) [Bis(2-ethylhexyl)hexanedioate] : -2.21

Reported LDH release cytotoxicity of O=C(O)CCN(C1(C(=O)NO)CCCC1)S(=O)(=O)c1ccc(Oc2ccc(F)cc2)cc1 : -0.305

Reported LDH release cytotoxicity of O=C(O)c1cccc(C(=O)O)c1 : -2.12

Reported LDH release cytotoxicity of OCC(O)CO : -1.51

Reported LDH release cytotoxicity of Cc1ccc(N(C)C)cc1 : -1.35

Reported LDH release cytotoxicity of c1ccc(-c2ccccc2)cc1 : -3.64

Reported LDH release cytotoxicity of CCCCCCCC(=O)OC [Methyl octanoate] : -0.862

Reported LDH release cytotoxicity of CCNc1nc(NC(C)C)nc(SC)n1 : -0.705

Reported LDH release cytotoxicity of Cc1c(C(=O)O)c(O)cc2c1C(=O)c1c(O)c(C3OC(CO)C(O)C(O)C3O)c(O)c(O)c1C2=O (stereo not given) : -11.2

Reported LDH release cytotoxicity of COCC(C)OCC(C)OCC(C)O (stereo not given) : -2.65

Reported LDH release cytotoxicity of CC(Oc1cccc(Cl)c1)C(=O)O (stereo not given) : -1.06

Reported LDH release cytotoxicity of CCCCCCOC(=O)c1ccccc1C(=O)OCCCCCC [Dihexyl phthalate] : -0.113

Reported LDH release cytotoxicity of Cc1cc(Cc2ccc(N)c(C)c2)ccc1N : -1.54

Reported LDH release cytotoxicity of COc1cccc(C(O)C2CCN(CCc3ccc(F)cc3)CC2)c1OC (stereo not given) : -0.377

These data points were gathered from the supplement of paper PMC7840683.
